B1: Transgelin-2 (Homo sapiens), P37802 (parent)
chain: MANRGPAYGLSREVQQKIEKQYDADLEQILIQWITTQCRKDVGRPQPGRENFQNWLKDGTVLCELINALYPEGQAPVKKIQASTMAFKQMEQISQFLQAAERYGINTTDIFQTVDLWEGKNMACVQRTLMNLGGLAVARDDGLFSGDPNWFPKKSKENPRNFSDNQLQEGKNVIGLQMGTNRGASQAGMTGYGMPRQIL

- Variants of: B1
- Test Parameters: with actb_human ACTB
Measure: effect of a mutation on the interaction

1) S163D; decreasing interaction
2) S163A; increasing interaction
3) S83D; decreasing interaction
4) S83A; increasing interaction

Cited source for all entries: IntAct's records for PubMed 21577206
